target: Human immunodeficiency virus type 1 protease (Human immunodeficiency virus 1)
Grouping key: Ki. Bins: low end: < 0.3 nM; middle: ≥ 0.3 nM and < 200 nM; high end: ≥ 200 nM

These recorded examples may help you get a feel for the data.
compound	labelValue
NC(=O)c1cccc(CN2C(=O)N(Cc3cccc(C(N)=O)c3)[C@H](Cc3ccccc3)[C@H](O)[C@H]2CCc2ccccc2)c1	low end
O=C1[C@@H](CCc2ccccc2)N(Cc2ccccc2)C(=O)N(Cc2ccccc2)[C@@H]1Cc1ccccc1	high end

Prompt line: Lab note: sort Nc1cccc(CN2C(=O)N(Cc3ccc4[nH]ncc4c3)[C@H](CCc3ccccc3)[C@@H](O)[C@H]2Cc2ccccc2)c1 into the matching Ki band.
Response line: low end

Prompt line: Lab note: sort NC(=O)c1cccc(CN2C(=O)N[C@H](CCc3ccccc3)[C@@H](O)[C@H]2Cc2ccccc2)c1 into the matching Ki band.
Response line: middle

Prompt line: Lab note: sort N#Cc1cc(CN2C(=O)N(Cc3ccccc3)[C@H](Cc3ccccc3)[C@H](O)[C@H]2CCc2ccccc2)ccc1F into the matching Ki band.
Response line: middle

Prompt line: Lab note: sort O=C1N(Cc2ccc3ccccc3c2)[C@H](/C=C/c2ccccc2)[C@@H](O)[C@@H](Cc2ccccc2)N1Cc1ccc2ccccc2c1 into the matching Ki band.
Response line: high end

Prompt line: Lab note: sort N#Cc1cc(CN2C(=O)N(Cc3ccc(F)c(C#N)c3)[C@H](Cc3ccccc3)[C@H](O)[C@H]2CCc2ccccc2)ccc1F into the matching Ki band.
Response line: high end

Prompt line: Lab note: sort O=C1N[C@H](Cc2ccccc2)[C@H](O)[C@@H](CCc2ccccc2)N1Cc1ccc2[nH]ncc2c1 into the matching Ki band.
Response line: middle

Prompt line: Lab note: sort Nc1[nH]nc2ccc(CN3C(=O)N(Cc4ccc5n[nH]c(N)c5c4)[C@H](Cc4ccccc4)[C@H](O)[C@H]3CCc3ccccc3)cc12 into the matching Ki band.
Response line: low end

Prompt line: Lab note: sort O=C(Nc1nccs1)c1cccc(CN2C(=O)N(Cc3cccc(C(=O)Nc4nccs4)c3)[C@H](Cc3ccccc3)[C@H](O)[C@H]2CCc2ccccc2)c1 into the matching Ki band.
Response line: low end

Prompt line: Lab note: sort N/C(=N\O)c1cccc(CN2C(=O)N3C(Cc4ccccc4)[C@@H]3[C@@H](O)[C@H]2Cc2ccccc2)c1 (stereo not given in full) into the matching Ki band.
Response line: middle

Prompt line: Lab note: sort Nc1[nH]nc2ccc(CN3C(=O)N[C@H](CCc4ccccc4)[C@@H](O)[C@H]3Cc3ccccc3)cc12 into the matching Ki band.
Response line: middle

Prompt line: Lab note: sort N#Cc1cccc(CN2C(=O)N3C(Cc4ccccc4)[C@@H]3[C@@H](O)[C@H]2Cc2ccccc2)c1 (stereo not given in full) into the matching Ki band.
Response line: high end

Prompt line: Lab note: sort O=C1N[C@H](Cc2ccccc2)[C@H](O)[C@H]2C(Cc3ccccc3)N12 (stereo not given in full) into the matching Ki band.
Response line: high end

Prompt line: Lab note: sort NC(=O)c1cccc(CN2C(=O)N(Cc3cccc(C(N)=O)c3)[C@H](Cc3ccc(F)cc3)[C@H](O)[C@H]2CCc2ccc(F)cc2)c1 into the matching Ki band.
Response line: middle

----------
test: The maximum plasma concentration (Cmax) is the observed peak plasma concentration after an oral dose on rat; assay type: ADME, organism-based; set-up: route oral
Documented Cmax across a set of compounds
Numbers only here, please. The scale is nM.

// below: answered compounds
smilesData	Cmax (nM)
CC(=O)c1cccc(CN2C(=O)N(Cc3cccc(C(C)=O)c3)[C@H](Cc3ccccc3)[C@H](O)[C@H]2CCc2ccccc2)c1	180
O=C1N(Cc2cccc(CO)c2)[C@H](CCc2ccccc2)[C@@H](O)[C@@H](Cc2ccccc2)N1Cc1cccc(CO)c1	240
Nc1cccc(CN2C(=O)N(Cc3cccc(N)c3)[C@H](Cc3ccccc3)[C@H](O)[C@H]2CCc2ccccc2)c1	1000

Let's switch to this compound now.
Input O=C1N(Cc2cccc(-c3cc[nH]n3)c2)[C@H](CCc2ccccc2)[C@@H](O)[C@@H](Cc2ccccc2)N1Cc1cccc(-c2cc[nH]n2)c1 . Output Cmax: 160
